Experiment: Mouse in vivo PK study
Settings: mouse, plasma; male CD1 mice, 2 mg/kg IV
measured.parameter: AUC (ng·h/mL)
Give bare numbers, in ng·h/mL.

Briefly, AUC measured for C=CC(=O)Nc1cc(Nc2nccc(-c3cc(C#N)c4c(c3)c(C)cn4C)n2)c(OC)cc1N(C)CCN(C)C [Example 2] : 937

---

System: PC-9 cells
Assay: PC-9 growth inhibition assay (cell proliferation, CellTiter-Glo, 72 h)
Assay type: cell-based, human
Conditions: cellular proliferation, PC9 cells, single mutant EGFR, read-out: PC9 IC50 (nM) SM
measured.parameter: IC50 (nM)
Give bare numbers, in nM.

{"molecule": "C=CC(=O)Nc1cc(Nc2nccc(-n3nc(N(C)C)c4ccsc43)n2)c(OC)cc1N(C)CCN(C)C", "experimental.result": 2.9}
{"molecule": "C=CC(=O)Nc1cc(Nc2nccc(-c3cn(C)c4ccccc34)n2)c(OC)cc1N(C)CCN(C)C [AZD9291, reference compound]", "experimental.result": 7.43}

Briefly, IC50 measured for C=CC(=O)Nc1cc(Nc2nccc(-c3cc(C#N)c4c(c3)c(C)cn4C)n2)c(OC)cc1N(C)CCN(C)C : 3.22

---

Experiment: Mouse in vivo PK study
Details: mouse, plasma; male CD1 mice, 10 mg/kg PO; read-out: T1/2 (PO) (converted)
Structures can show the parent of a compound that is named as a salt.
Give measured half-life for each item. Keep answers brief.
Answers are plain numbers, in h.

Examples with answers:
{"molecule": "[2H]C([2H])([2H])N(CCN(C)c1cc(OC)c(Nc2nccc(-c3cc(C#N)c4c(c3)c(C)cn4C)n2)cc1NC(=O)C=C)C([2H])([2H])[2H] [Example 27, mesylate]", "half-life / h": 3.65}
{"molecule": "C=CC(=O)Nc1cc(Nc2nccc(-c3cc(C#N)cc4c3ccn4C)n2)c(OC)cc1N(C)CCN(C)C", "half-life / h": 7.3}

Briefly, half-life measured for C=CC(=O)Nc1cc(Nc2nccc(-n3nc(N(C)C)c4cc(Cl)sc43)n2)c(OC)cc1N(C)CCN(C)C : 2.67

---

Give measured IC50 for each item. Keep answers brief.
Biological target: Exon 19 deletion EGFR (activating single mutant) in PC-9 cells (Homo sapiens, UniProt P00533, DEL746-750)
Construct: cellular phosphorylation of endogenous p-EGFR
Sequence (P00533 with tags, fused parts or gaps DEL746-750): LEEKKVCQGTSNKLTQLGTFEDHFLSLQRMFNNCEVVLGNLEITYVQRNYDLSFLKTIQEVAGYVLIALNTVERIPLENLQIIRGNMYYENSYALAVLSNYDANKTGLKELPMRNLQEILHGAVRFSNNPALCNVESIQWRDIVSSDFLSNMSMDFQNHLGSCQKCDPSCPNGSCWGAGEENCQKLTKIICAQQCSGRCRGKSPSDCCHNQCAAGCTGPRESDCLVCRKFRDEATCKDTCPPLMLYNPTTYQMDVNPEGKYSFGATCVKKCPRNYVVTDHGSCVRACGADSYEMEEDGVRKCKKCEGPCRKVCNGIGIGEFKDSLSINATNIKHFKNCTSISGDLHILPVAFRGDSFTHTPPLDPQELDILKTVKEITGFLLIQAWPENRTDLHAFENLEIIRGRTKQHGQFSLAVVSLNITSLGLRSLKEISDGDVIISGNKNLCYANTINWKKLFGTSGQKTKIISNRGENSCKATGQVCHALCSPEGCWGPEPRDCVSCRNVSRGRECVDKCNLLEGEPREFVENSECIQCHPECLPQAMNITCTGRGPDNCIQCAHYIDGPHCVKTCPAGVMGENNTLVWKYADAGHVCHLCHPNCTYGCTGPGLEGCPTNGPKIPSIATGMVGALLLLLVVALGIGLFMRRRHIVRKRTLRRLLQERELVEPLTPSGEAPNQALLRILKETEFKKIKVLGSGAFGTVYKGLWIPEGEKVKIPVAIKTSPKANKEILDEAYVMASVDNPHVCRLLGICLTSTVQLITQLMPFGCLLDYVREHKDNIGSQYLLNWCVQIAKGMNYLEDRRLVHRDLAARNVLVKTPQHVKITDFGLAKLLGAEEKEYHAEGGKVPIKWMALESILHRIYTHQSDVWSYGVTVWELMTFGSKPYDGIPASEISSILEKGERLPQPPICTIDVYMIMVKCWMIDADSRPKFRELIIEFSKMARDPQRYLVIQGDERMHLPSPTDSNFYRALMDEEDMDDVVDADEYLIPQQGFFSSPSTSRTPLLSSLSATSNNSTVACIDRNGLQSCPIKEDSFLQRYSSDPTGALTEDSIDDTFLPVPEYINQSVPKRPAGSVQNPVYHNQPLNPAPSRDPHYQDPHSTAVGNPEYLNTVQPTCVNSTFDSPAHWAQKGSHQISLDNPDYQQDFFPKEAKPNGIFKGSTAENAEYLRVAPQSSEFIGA
Test: Exon 19 deletion EGFR PC-9 cellular autophosphorylation assay (p-EGFR ELISA)
Conditions: PC9, 2 h treatment, read-out: SM (PC9) IC50
Numbers only, in nM.

Examples with answers:
{"structure.string": "C=CC(=O)Nc1cc(Nc2nccc(-c3cc(C#N)cc4c3cnn4C)n2)c(OC)cc1N(C)CCN(C)C", "units.symbol": "nM", "IC50": 10.8}
{"structure.string": "C=CC(=O)Nc1cc(Nc2nccc(-c3ccc4c(c3)c(C)cn4C)n2)c(OC)cc1N(C)CCN(C)C", "units.symbol": "nM", "IC50": 11.8}
{"structure.string": "C=CC(=O)Nc1cc(Nc2nccc(-n3nc(N(C)C)c4ccsc43)n2)c(OC)cc1N(C)CCN(C)C", "units.symbol": "nM", "IC50": 17.1}
{"structure.string": "C=CC(=O)Nc1cc(Nc2nccc(-n3nc(NCC)c4ncccc43)n2)c(OCC(F)F)cc1N(C)CCN(C)C", "units.symbol": "nM", "IC50": 5.79}
{"structure.string": "C=CC(=O)Nc1cc(Nc2nccc(-c3cc4c(C)c[nH]c4c(C#N)n3)n2)c(OC)cc1N(C)CCN(C)C", "units.symbol": "nM", "IC50": 5.15}

Give me IC50 for each of these compounds, listed below.
1. C=CC(=O)Nc1cc(Nc2nccc(-n3nc(N(C)C)c4cc(Cl)sc43)n2)c(OC)cc1N(C)CCN(C)C
2. C=CC(=O)Nc1cc(Nc2nccc(-c3cc(C#N)c4ccn(C)c4c3)n2)c(OC)cc1N(C)CCN(C)C

1: 8.35; 2: 33
